Hi there, I'd appreciate the recorded pEC50 for every entry that follows.
# Tested on: Plasmodium falciparum
# MEASUREMENT PROTOCOL: Effective dose against chloroquine-resistant, pyrimethamine-resistant, mefloquine-sensitive Plasmodium falciparum K1
# Type: functional
# STUDY CONDITIONS: read-out: ED50 (the source's name)
The scale used: pEC50 is minus the common logarithm of the concentration in molar units.

Given item Cn1cnc(S(=O)(=O)N(CC(=O)OC(C)(C)C)C2Cc3cc(C#N)ccc3N(Cc3cncn3C)C2)c1 (stereo not drawn) , the value recorded as its pEC50 is 7.70

Given item C=C(C)CN(C1Cc2cc(C#N)ccc2N(Cc2cncn2C)C1)S(=O)(=O)c1cn(C)cn1 (stereo not drawn) , the value recorded as its pEC50 is 7.82

Given item "O[C@H](c1cc(C(F)(F)F)nc2c(C(F)(F)F)cccc12)[C@@H]1CCCCN1" , the value recorded as its pEC50 is 8.00

Given item Cn1cnc(S(=O)(=O)N(CC(=O)NC(C)(C)C)C2Cc3cc(C#N)ccc3N(Cc3cncn3C)C2)c1 (stereo not drawn) , the value recorded as its pEC50 is 8.15

Given item CCN(CC)CCCC(C)Nc1ccnc2cc(Cl)ccc12 (stereo not drawn) , the value recorded as its pEC50 is 6.70

Given item C=C(Br)CN(C1Cc2cc(C#N)ccc2N(Cc2cncn2C)C1)S(=O)(=O)c1cn(C)cn1 (stereo not drawn) , the value recorded as its pEC50 is 8.00

Given item Cn1cnc(S(=O)(=O)N(Cc2ccccc2)C2Cc3cc(C#N)ccc3N(Cc3cncn3C)C2)c1 (stereo not drawn) , the value recorded as its pEC50 is 8.05

Given item "CCc1nc(N)nc(N)c1-c1ccc(Cl)cc1" , the value recorded as its pEC50 is 4.60

---

Hi there, I'd appreciate the recorded pIC50 for every entry that follows.
# ASSAY TARGET: Protein farnesyltransferase (Rattus norvegicus, UniProt Q02293+Q04631)
# MEASUREMENT PROTOCOL: Inhibition of biotinylated lamin B peptide farnesylation by rat farnesyltransferase
The scale used: pIC50 is minus the common logarithm of the concentration in molar units.

So the reported pIC50 for Cn1cncc1CN1CC(N(CC(=O)NC(C)(C)C)S(=O)(=O)c2nccn2C)Cc2cc(C#N)ccc21 (stereo not given) , on Protein farnesyltransferase (Rattus norvegicus, UniProt Q02293+Q04631), turned out to be 8.30

So the reported pIC50 for Cc1ccccc1CN(C1Cc2cc(C#N)ccc2N(Cc2cncn2C)C1)S(=O)(=O)c1cn(C)cn1 (stereo not given) , on Protein farnesyltransferase (Rattus norvegicus, UniProt Q02293+Q04631), turned out to be 8.47

So the reported pIC50 for Cn1cnc(S(=O)(=O)N(CC(=O)NC(C)(C)C)C2Cc3cc(C#N)ccc3N(Cc3cncn3C)C2)c1 (stereo not given) , on Protein farnesyltransferase (Rattus norvegicus, UniProt Q02293+Q04631), turned out to be 8.82

So the reported pIC50 for Cn1cncc1CN1CC(N(Cc2ccc3ccccc3c2Br)S(=O)(=O)c2ccccn2)Cc2cc(C#N)ccc21 (stereo not given) , on Protein farnesyltransferase (Rattus norvegicus, UniProt Q02293+Q04631), turned out to be 6.36

So the reported pIC50 for Cc1onc(-c2ccccc2)c1CN(C1Cc2cc(C#N)ccc2N(Cc2cncn2C)C1)S(=O)(=O)c1ccccn1 (stereo not given) , on Protein farnesyltransferase (Rattus norvegicus, UniProt Q02293+Q04631), turned out to be 8.52
